These data points were gathered from PubChem BioAssay.

# ASSAY OVERVIEW: OD615 S. cerevisiae growth inhibition, permissive medium, pilot counter-assay, permissive growth control for S. cerevisiae lifespan shortening project (AID 705)
# SETUP CONDITIONS: OD615, 24 h, at 10 µM, active compounds read high
Calls of active or inactive are those of the source.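 The calls were made as follows: active = growth inhibition above 25% in both replicates, a cutoff set 3 SD above the mean; inconclusive = above 25% in only one replicate; inactive = the rest.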
METRIC: growth inhibition

Cc1ccc(C(=O)N2CCN(C3CCCCC3)CC2)s1 : -3.88% (inactive)
COc1ccc(CNC(=O)CN(c2cc(C)cc(C)c2)S(=O)(=O)c2c(C)noc2C)cc1 : -24.7% (inactive)
CCC(Cc1ccccc1)NC(=O)CN1C(=O)CSc2ncccc21 (stereo not given) : -2.26% (inactive)
O=C(c1cc2ccccc2cc1OCC(O)CN1CCCCC1)N1CCCCC1 (stereo not given) : 2.48% (inactive)
CCOC(=O)c1cccc(NC(=O)C2CCC(CNc3c(N4CCOCC4)c(=O)c3=O)CC2)c1 (stereo not given) : -7.33% (inactive)
O=C1c2oc3ccc(F)cc3c(=O)c2C(c2ccc(F)cc2)N1CCCN1CCOCC1 (stereo not given) : -1.14% (inactive)
CCCCc1ccc(Nc2ncnc3nc[nH]c23)cc1 : -6.71% (inactive)
O=C1CN(C(=O)CN2CCOCC2)C(c2ccccc2)c2cc(Br)ccc2N1 (stereo not given) : -9.19% (inactive)
COc1cccc(-c2nc(C(N)=O)c3[nH]c(=O)n(-c4cccc(Cl)c4)c3n2)c1OC : -21.4% (inactive)
COc1ccc(CCNS(=O)(=O)c2ccc3c(c2)oc(=O)n3C)cc1OC : -5.33% (inactive)
Brc1ccccc1OCCCN1CCOCC1 : -11.7% (inactive)
Cc1cccc(C2N(c3ccc(F)cc3)C(=O)C3CCCN32)c1 (stereo not given) : -1.45% (inactive)
COc1cc2c(cc1OC)C(c1ccco1)CC(=O)N2 (stereo not given) : -6.61% (inactive)
CCN(CC)C(=O)Nc1cnc2ccccc2c1 : -17.2% (inactive)
CCN1CCN(C(CNS(=O)(=O)c2ccc(OC)cc2)c2cccnc2)CC1 (stereo not given) : -0.57% (inactive)
O=C(CCc1ccccc1)Nc1ccc(NC(=O)c2ccco2)cc1 : -5.04% (inactive)
Cc1nc2cc(-c3cccc(F)c3)nn2c(C)c1CCC(=O)N1CCN(c2ccccn2)CC1 : -0.315% (inactive)
COC(=O)c1nc2cc(C)ccn2c1F : 0.67% (inactive)
COC(=O)C1=CN(CC2CCCO2)C=C(C(=O)OC)C1c1ccsc1 (stereo not given) : -22.4% (inactive)
CCN=C1SC(CC(=O)NC(N)=O)C(=O)N1CC (stereo not given) : -12.5% (inactive)
COc1ccc(NC(=O)C2=C(C)NC(=O)NC2c2cccc(OC)c2OC)c(OC)c1 (stereo not given) : -15.4% (inactive)
CN(C)C=NC(=O)/C(C#N)=C1\CCc2ccccc2N1 : -9.21% (inactive)
COCC(=O)NCc1nc2ccccc2n1Cc1ccccc1F : -7.99% (inactive)
CCOC(=O)N1CCN(C(=O)CSc2nnc(-c3ccc(C(C)(C)C)cc3)o2)CC1 : -7.79% (inactive)
COc1ccccc1-c1c(C)nn2c(N3CCCCCC3)cc(C)nc12 : -5.18% (inactive)
Cc1ccc(NC(=O)CCNS(=O)(=O)c2cccc3nonc23)cc1 : -4.17% (inactive)
COc1ccc(-c2nnc(SCC(=O)NC(C)C)n2CC2CCCO2)cc1OC (stereo not given) : 1.07% (inactive)
O=C(NCc1ccco1)c1ccc2c(c1)N(Cc1ccccc1)C(=O)CS2=O (stereo not given) : -4.13% (inactive)
COc1ccc(-c2nc(CS(=O)CC(=O)NCc3cccnc3)c(C)o2)cc1 (stereo not given) : 2.57% (inactive)
CN(C)S(=O)(=O)c1ccc2c(c1)c(=O)c(C(=O)N1CCOCC1)cn2C : -8.25% (inactive)
COc1ccccc1C1C(C(N)=O)=C(C)Nc2nc(-c3ccc(Cl)cc3)nn21 (stereo not given) : -5.66% (inactive)
CCOC(=O)N1CCC(NC(=O)CCc2c(C)nc3c(c(C)nn3-c3ccccc3)c2C)CC1 : -8.02% (inactive)
O=C(CSc1nc2c(cnn2-c2ccc(F)cc2)c(=O)[nH]1)N1CCCc2ccccc21 : -2.67% (inactive)
CC(=O)Cc1nsc(NC(=O)C2Cc3ccccc3C(=O)O2)n1 (stereo not given) : -15.5% (inactive)
Cc1nnc(NC(=O)CSc2cn(Cc3ccccc3)c3ccccc23)s1 : -8.99% (inactive)
O=C(Nc1ccccc1F)C1CCCN(S(=O)(=O)c2cccc3cccnc23)C1 (stereo not given) : -3.46% (inactive)
COC(=O)CC1=C(C)C(=O)CC2C(C)(C)CCCC12C (stereo not given) : 4.86% (inactive)
O=C(Cn1cnc2c(nnn2-c2ccccc2)c1=O)NCc1ccco1 : 1.43% (inactive)
O=C(Cn1cc2c(n1)CCCC2)N1CCCc2ccccc21 : 1.09% (inactive)
CCOCCOCN(C#N)c1nc(OC)nc(N(C)C)n1 : -5.92% (inactive)
COC(=O)c1nc(NC(=O)C(C)(C)C)n[nH]1 : -9.88% (inactive)
O=C(Nc1ccc(Br)cc1F)c1ccc2c(c1)N(Cc1ccccc1)C(=O)CS2=O (stereo not given) : -7.48% (inactive)
CCOC(=O)C1C(=O)OC2(CCOC(C)(C)C2)C1C(=O)OCC (stereo not given) : 1.65% (inactive)
O=C(Nc1ccc(OC(F)(F)F)cc1)c1cnc2n(c1=O)CCS2 : -14.9% (inactive)
Cc1[nH]c2ccccc2c1CCC(N)=O : -0.405% (inactive)
